- System: human embryonic kidney cells (HEK293T)
Ends that are not written are not given here.
The threshold is 100. Values of Cell viability, HEK293T, Data1 beneath it are tagged t; values meeting or exceeding it are tagged f.

See these solved cases before continuing.
SLEYLP [TaPep35]	f
PPLENT [TaPep39]	t
YQAENKH [TaPep14]	t

# input Check if Cell viability, HEK293T, Data1 falls below 100 for YAGNAP [TaPep10] .
# output t

# input Could you please tell me whether Cell viability, HEK293T, Data1 recorded for TDPELV [TaPep60] is less than 100?
# output f

---

- protocol-notes: Electronic tongue analysis (Taste-Sensing System SA 402B)
- Design: unit not given here
- run-parameters: sensor C00, peptide 0.1 mg/mL, reference solution 30 mM KCl + 0.3 mM tartaric acid as baseline, detection threshold 0, room temperature, four replicates, first measurement excluded
Ends that are not written are not given here.
readout-name: Bitter
Numbers only.

Answered cases to consult:
EEVPITD [TaPep46]	7.55
AKDEKEL [TaPep1]	10.96
SVLEFS [TaPep52]	7.49

List Bitter for every entry below, keeping the order given.
1. SNDPVA [TaPep71]
2. KADGNR [TaPep4]
3. FEGDQDA [TaPep18]

# output
1. 7.30
2. 7.74
3. 6.92

Each substance below has a reported value. Please supply its Bitter.
1. AQSSLS [TaPep40]
2. FTEELE [TaPep32]
3. HIDELDE [TaPep22]
4. PPLENT [TaPep39]

# output
1. 7.48
2. 7.51
3. 6.91
4. 7.69

// for each substance below, give its Bitter
1. APEELDA [TaPep36]
2. DFKEELPK [TaPep42]
3. AEDNSL [TaPep43]
4. FPEQQD [TaPep16]
5. SLEYLP [TaPep35]
6. AQDDLP [TaPep20]
7. EQGEQN [TaPep15]

# output
[7.85, 7.41, 7.83, 7.29, 7.64, 7.24, 6.27]
